Consider the following compounds; for each one, report its isobaric coefficient of expansion.
assay.overview: isobaric coefficient of expansion
condition.summary: 278.15 K; 15000 kPa; Liquid; DSC

Would you please look over these solved cases?
>>> df
    smiles_input                  observed_property       reading
0          CCC#N  isobaric coefficient of expansion   0.00117 1/K
1    N#Cc1ccccc1  isobaric coefficient of expansion  0.000829 1/K
2  C[N+](=O)[O-]  isobaric coefficient of expansion   0.00113 1/K

Please go through the list and note isobaric coefficient of expansion for each compound.
1. CC[N+](=O)[O-]
2. CCC[N+](=O)[O-]

Data returned:
0.00109 1/K
0.00101 1/K

###

assay.overview: isobaric coefficient of expansion
condition.summary: 308.15 K; 40000 kPa; Liquid; DSC
Give isobaric coefficient of expansion for every item shown.

In [3]: df
Out[3]:
                              molecule                  observed_property       reading
0         C[N+](=O)[O-] [nitromethane]  isobaric coefficient of expansion   0.00105 1/K
1         CC[N+](=O)[O-] [nitroethane]  isobaric coefficient of expansion  0.000994 1/K
2  O=[N+]([O-])c1ccccc1 [nitrobenzene]  isobaric coefficient of expansion  0.000737 1/K
3           N#Cc1ccccc1 [benzonitrile]  isobaric coefficient of expansion  0.000765 1/K
4     CCC[N+](=O)[O-] [1-nitropropane]  isobaric coefficient of expansion  0.000921 1/K

Consider the additional molecule presented here.
For this molecule ( CCC#N [propanenitrile] ), measured isobaric coefficient of expansion is 0.00106 1/K

###

assay.overview: isobaric coefficient of expansion
condition.summary: 318.15 K; 50000 kPa; Liquid; DSC
Provide the recorded isobaric coefficient of expansion for the entries that follow.

Illustrative cases are given below, each with its answer.
           smiles_input                  observed_property       reading
0        CC[N+](=O)[O-]  isobaric coefficient of expansion  0.000964 1/K
1       CCC[N+](=O)[O-]  isobaric coefficient of expansion  0.000895 1/K
2         C[N+](=O)[O-]  isobaric coefficient of expansion   0.00103 1/K
3  O=[N+]([O-])c1ccccc1  isobaric coefficient of expansion  0.000718 1/K
4                 CCC#N  isobaric coefficient of expansion   0.00102 1/K

Turning to the following molecule.
Note to self: isobaric coefficient of expansion recorded for "N#Cc1ccccc1" was 0.000743 1/K

###

assay.overview: isobaric coefficient of expansion
condition.summary: 288.15 K; 55000 kPa; Liquid; DSC
observed.property: isobaric coefficient of expansion

                       compound                  observed_property       reading
0  CC[N+](=O)[O-] [nitroethane]  isobaric coefficient of expansion  0.000944 1/K

I'm hoping you can list isobaric coefficient of expansion for every compound here, please.
1. CCC[N+](=O)[O-] [1-nitropropane]
2. O=[N+]([O-])c1ccccc1 [nitrobenzene]

Data returned:
0.000874 1/K
0.000717 1/K

Quick one: give me isobaric coefficient of expansion for each item below, same order please.
1. CCC#N [propanenitrile]
2. C[N+](=O)[O-] [nitromethane]

Data returned:
["0.000992 1/K", "0.000992 1/K"]

###

assay.overview: isobaric coefficient of expansion
condition.summary: 298.15 K; 45000 kPa; Liquid; DSC
observed.property: isobaric coefficient of expansion

>>> print(df.to_string())
           smiles_input                  observed_property       reading
0        CC[N+](=O)[O-]  isobaric coefficient of expansion  0.000973 1/K
1       CCC[N+](=O)[O-]  isobaric coefficient of expansion  0.000904 1/K
2                 CCC#N  isobaric coefficient of expansion   0.00103 1/K
3  O=[N+]([O-])c1ccccc1  isobaric coefficient of expansion  0.000731 1/K
4           N#Cc1ccccc1  isobaric coefficient of expansion  0.000759 1/K

Turning now to a further record.
Lab book: isobaric coefficient of expansion of "C[N+](=O)[O-]" noted as 0.00103 1/K

###

For each entry below, report its isobaric coefficient of expansion value.
assay.overview: isobaric coefficient of expansion
condition.summary: 278.15 K; 30000 kPa; Liquid; DSC

Consider the following illustrative entries.
      smiles_input       reading
0            CCC#N   0.00109 1/K
1      N#Cc1ccccc1  0.000791 1/K
2  CCC[N+](=O)[O-]  0.000943 1/K
3   CC[N+](=O)[O-]   0.00102 1/K

Moving on to another compound below.
Record summary for "C[N+](=O)[O-]" : reported isobaric coefficient of expansion = 0.00106 1/K

###

assay.overview: isobaric coefficient of expansion
condition.summary: 338.15 K; 30000 kPa; Liquid; DSC
Give isobaric coefficient of expansion for every item shown.

In [3]: df
Out[3]:
     smiles_input      reading
0  CC[N+](=O)[O-]  0.00106 1/K

# map each compound to its isobaric coefficient of expansion
1. O=[N+]([O-])c1ccccc1
2. C[N+](=O)[O-]
3. N#Cc1ccccc1
4. CCC[N+](=O)[O-]
5. CCC#N

Data returned:
["0.000762 1/K", "0.00113 1/K", "0.000786 1/K", "0.000988 1/K", "0.00115 1/K"]

###

I'd appreciate it if you could supply isobaric coefficient of expansion values for the items below.
assay.overview: isobaric coefficient of expansion
condition.summary: 328.15 K; 5000 kPa; Liquid; DSC

Check out these entries, answers already filled in.
           smiles_input                  observed_property       reading
0       CCC[N+](=O)[O-]  isobaric coefficient of expansion   0.00115 1/K
1         C[N+](=O)[O-]  isobaric coefficient of expansion   0.00129 1/K
2  O=[N+]([O-])c1ccccc1  isobaric coefficient of expansion  0.000837 1/K

For the 3 molecules below, give their isobaric coefficient of expansion values.
1. CCC#N
2. CC[N+](=O)[O-]
3. N#Cc1ccccc1

Data returned:
0.00139 1/K
0.0012 1/K
0.000853 1/K

###

assay.overview: isobaric coefficient of expansion
condition.summary: 338.15 K; 35000 kPa; Liquid; DSC
For each entry below, report its isobaric coefficient of expansion value.

      smiles_input       reading
0  CCC[N+](=O)[O-]  0.000964 1/K
1      N#Cc1ccccc1  0.000776 1/K
2    C[N+](=O)[O-]   0.00111 1/K
3   CC[N+](=O)[O-]   0.00103 1/K
4            CCC#N   0.00112 1/K

Continue with the next compound.
Record "O=[N+]([O-])c1ccccc1" , field isobaric coefficient of expansion: 0.000751 1/K

###

assay.overview: isobaric coefficient of expansion
condition.summary: 298.15 K; 20000 kPa; Liquid; DSC
So I've got a bunch of molecules here, and I need their isobaric coefficient of expansion values.

Examples from the recorded data:
In [3]: df
Out[3]:
     smiles_input      reading
0           CCC#N  0.00117 1/K
1   C[N+](=O)[O-]  0.00113 1/K
2  CC[N+](=O)[O-]  0.00107 1/K

Batch of 3 molecules: report isobaric coefficient of expansion for each.
1. O=[N+]([O-])c1ccccc1
2. CCC[N+](=O)[O-]
3. N#Cc1ccccc1

Data returned:
1: 0.000785 1/K; 2: 0.001 1/K; 3: 0.000809 1/K

###

assay.overview: isobaric coefficient of expansion
condition.summary: 338.15 K; 55000 kPa; Liquid; DSC
observed.property: isobaric coefficient of expansion

Please go through the list and note isobaric coefficient of expansion for each molecule.
1. CC[N+](=O)[O-] [nitroethane]
2. O=[N+]([O-])c1ccccc1 [nitrobenzene]
3. CCC#N [propanenitrile]
4. C[N+](=O)[O-] [nitromethane]
5. CCC[N+](=O)[O-] [1-nitropropane]

Data returned:
1: 0.000945 1/K; 2: 0.000708 1/K; 3: 0.00101 1/K; 4: 0.00102 1/K; 5: 0.000883 1/K

###

assay.overview: isobaric coefficient of expansion
condition.summary: 328.15 K; 40000 kPa; Liquid; DSC
observed.property: isobaric coefficient of expansion

Hey, quick one: what's isobaric coefficient of expansion for each of these?
1. O=[N+]([O-])c1ccccc1
2. CCC[N+](=O)[O-]
3. C[N+](=O)[O-]
4. CCC#N
5. CC[N+](=O)[O-]
6. N#Cc1ccccc1

Data returned:
1: 0.000739 1/K; 2: 0.00093 1/K; 3: 0.00107 1/K; 4: 0.00107 1/K; 5: 0.001 1/K; 6: 0.00076 1/K
